Reference source for all entries: the supplement of paper PMC13380429

Known inhibition of SARS-CoV-2 cytopathic effect of a selection of compounds
test system: Vero E6 infected with SARS-CoV-2; assay: inhibition of SARS-CoV-2 cytopathic effect; higher = more antiviral protection, active = above 15; conditions: 1 nM; 48 h
Property measured: inhibition of SARS-CoV-2 cytopathic effect (%)

| Compound | Result |
| --- | --- |
| Cc1[nH]c(/C=C2\C(=O)Nc3ccccc32)c(C)c1CCC(=O)O [orantinib] | -0.96 |
| O=C(O)c1cc(=O)c2c(OCC(O)COc3cccc4oc(C(=O)O)cc(=O)c34)cccc2o1 | -0.6 |
| CN(C)C/C=C/C(=O)Nc1cc2c(Nc3ccc(F)c(Cl)c3)ncnc2cc1O[C@H]1CCOC1 | -2.03 |
| CC(=O)N[C@H]1[C@H]([C@H](O)[C@H](O)CO)OC(C(=O)O)=C[C@@H]1NC(=N)N | 0.39 |
| Nc1nc(=O)c2c([nH]1)NCC(CNc1ccc(C(=O)N[C@@H](CCC(=O)O)C(=O)O)cc1)N2C=O (some centres not stated) | -3.4 |
| CNC(=O)c1ccc(Nc2ncc(C(F)(F)F)c(NCc3nccnc3N(C)S(C)(=O)=O)n2)cc1 | -2.21 |
| Nc1nc(N)c(N=O)c(OCC2CCCCC2)n1 | -3.27 |
| COc1cc(Nc2c(C#N)cnc3cc(OCCCN4CCN(C)CC4)c(OC)cc23)c(Cl)cc1Cl | 0.33 |
| C[C@]12CCC(=O)C=C1CC[C@@H]1[C@@H]2[C@@H](O)C[C@@]2(C)[C@H]1CC[C@]2(O)C(=O)CO [hydrocortisone] | -3.82 |
| N#C/C(=C\c1ccc(O)c(O)c1)C(=O)OCCc1cccs1 | 1.43 |
| COc1cc(NC(=O)Nc2cccc(CNC(=O)O[C@H]3CCOC3)c2)ccc1-c1cnco1 | 0.31 |
| Ic1cc(-c2ccccc2)ncn1 | -0.63 |

---

Known inhibition of SARS-CoV-2 cytopathic effect of a selection of compounds
tested on: Vero E6 infected with SARS-CoV-2; test: inhibition of SARS-CoV-2 cytopathic effect; higher = more antiviral protection, active = above 15; conditions: 1 nM; 48 h
Property measured: inhibition of SARS-CoV-2 cytopathic effect (%)

| Compound | Target system | Result |
| --- | --- | --- |
| O=C(Nc1c(Cl)cncc1Cl)c1ccc(OC(F)F)c(OCC2CC2)c1 [roflumilast] | Vero E6 infected with SARS-CoV-2 | -0.45 |
| CC(C)NCC(O)COc1cccc2[nH]ccc12 (stereo not drawn) [pindolol] | Vero E6 infected with SARS-CoV-2 | -3.04 |
| C[C@@H](O)[C@H]1C(=O)N2C(C(=O)O)=C(SCCNC=N)C[C@H]12 [imipenem] | Vero E6 infected with SARS-CoV-2 | 2.08 |

---

tested on: Vero E6 infected with SARS-CoV-2; experiment: inhibition of SARS-CoV-2 cytopathic effect; higher = more antiviral protection, active = above 15; conditions: 1 nM; 48 h
Property measured: inhibition of SARS-CoV-2 cytopathic effect (%)

| Molecule | Target system | Result |
| --- | --- | --- |
| CCNCCCNCCCCNCCCNCC | Vero E6 infected with SARS-CoV-2 | -0.97 |
| CC(=O)Nc1nnc(S(N)(=O)=O)s1 [acetazolamide] | Vero E6 infected with SARS-CoV-2 | -0.16 |
| N=C(N)c1ccc(/N=N/Nc2ccc(C(=N)N)cc2)cc1 [diminazene-aceturate] | Vero E6 infected with SARS-CoV-2 | 0.66 |
| [N-]=[N+]=CC(=O)CC[C@H](N)C(=O)O [6-diazo-5-oxo-L-norleucine] | Vero E6 infected with SARS-CoV-2 | 0.69 |
| CC(C)[C@H]1c2ccc(F)cc2CC[C@@]1(CCN(C)CCCc1nc2ccccc2[nH]1)OC(=O)C1CC1 | Vero E6 infected with SARS-CoV-2 | 1.78 |
| CN1C/C=C/CCOc2cccc(c2)-c2ccnc(n2)Nc2cccc(c2)C1 | Vero E6 infected with SARS-CoV-2 | 5.51 |
| Cc1nn(C)c2c1C(c1cccc(Cl)c1)=NCCN2 [zometapine] | Vero E6 infected with SARS-CoV-2 | -1.8 |
| CC(=O)[C@H]1CC[C@H]2[C@@H]3CC[C@H]4C[C@H](O)CC[C@]4(C)[C@H]3C(=O)C[C@]12C [alfaxalone] | Vero E6 infected with SARS-CoV-2 | -1.46 |
| CCC1=C[C@@H]2CN3CCc4c([nH]c5ccccc45)[C@@](C(=O)OC)(C2)[C@@H]13 [catharanthine] | Vero E6 infected with SARS-CoV-2 | 0.42 |
| CNC[C@@H]1CC[C@@H](N)[C@@H](O[C@H]2[C@H](O)[C@@H](O[C@H]3OC[C@](C)(O)[C@H](NC)[C@H]3O)[C@H](N)C[C@@H]2N)O1 [micronomicin] | Vero E6 infected with SARS-CoV-2 | 0.04 |
| Cc1c(NC(=O)c2cc3c(s2)CCCC3)cccc1-c1cn(C)c(=O)c(Nc2ccc(C3C(=O)N(C)CCN3C)cc2)n1 (stereo in doubt) | Vero E6 infected with SARS-CoV-2 | 2.73 |
| CC(=O)Oc1ccccc1C(=O)Oc1cccc(CO[N+](=O)[O-])c1 | Vero E6 infected with SARS-CoV-2 | -1.24 |
| Nc1nc(O)c2nc(Br)n([C@@H]3O[C@@H]4COP(=O)(O)O[C@H]4[C@H]3O)c2n1 [8-bromo-cGMP] | Vero E6 infected with SARS-CoV-2 | 0.61 |
| O=c1cc[nH]c(=S)[nH]1 [2-thiouracil] | Vero E6 infected with SARS-CoV-2 | 3.22 |
| Cn1c2c(c3ccccc31)CCNCC2 | Vero E6 infected with SARS-CoV-2 | 3.79 |
| Nc1nc2c(ccc3ccccc32)s1 | Vero E6 infected with SARS-CoV-2 | -0.98 |
| N[C@H](CO)C(=O)O [D-serine] | Vero E6 infected with SARS-CoV-2 | -1.38 |
| Cc1cc(C)c(CNC(=O)c2cc(-c3ccc(N4CCN(C)CC4)nc3)cc3c2c(C)cn3C(C)C)c(=O)[nH]1 | Vero E6 infected with SARS-CoV-2 | -3.53 |
| CC(COc1ccccc1)NC(C)C(O)c1ccc(O)cc1 (stereo not given) [isoxsuprine] | Vero E6 infected with SARS-CoV-2 | 0.69 |
| COc1ccc(CNC(=O)c2sc3nc(C)cc(C)c3c2N)cc1 | Vero E6 infected with SARS-CoV-2 | 1.68 |
| CN(C(=O)CCCOc1ccc2[nH]c(=O)ccc2c1)C1CCCCC1 [cilostamide] | Vero E6 infected with SARS-CoV-2 | 0.62 |
| O=c1[nH]c([C@@H]2CCCN2)nc2c1oc1ccc(Cl)cc12 | Vero E6 infected with SARS-CoV-2 | -0.27 |
| O=C1c2ccccc2C(Cc2ccncc2)(Cc2ccncc2)c2ccccc21 | Vero E6 infected with SARS-CoV-2 | 1.49 |
| NC[C@H]1O[C@H](O[C@H]2[C@H](O[C@@H]3O[C@H](CO)[C@@H](O)[C@H]3O)[C@@H](O)[C@H](N)C[C@@H]2N)[C@H](N)[C@@H](O)[C@@H]1O [ribostamycin-sulfate] | Vero E6 infected with SARS-CoV-2 | 2.02 |
| NS(=O)(=O)c1cccc2c1c([N+](=O)[O-])cc1nc(O)c(O)nc12 | Vero E6 infected with SARS-CoV-2 | 2.79 |
| C#CCC(Cc1cnc2nc(N)nc(N)c2n1)c1ccc(C(=O)N[C@@H](CCC(=O)O)C(=O)O)cc1 (stereo not given in full) [pralatrexate] | Vero E6 infected with SARS-CoV-2 | 1.9 |
| CC1(C)CCC2=C(O1)c1ccccc1C(=O)C2=O [beta-lapachone] | Vero E6 infected with SARS-CoV-2 | -0.31 |
| CCOC(=O)[C@H](CCc1ccccc1)N[C@@H](C)C(=O)N1[C@H](C(=O)O)C[C@@H]2CCC[C@@H]21 [ramipril] | Vero E6 infected with SARS-CoV-2 | -0.55 |
| CN1CCC[C@@H]1CCSc1ccc(O)cc1 | Vero E6 infected with SARS-CoV-2 | 0.25 |
| c1ccc2[nH]c(-c3cscn3)nc2c1 [tiabendazole] | Vero E6 infected with SARS-CoV-2 | 2.1 |
